From: patent US5336677A

The following molecules are listed with their measured pIC50 values.
molecular target: angiotensin II receptor; test: rat adrenal receptor binding assay, displacement of radiolabeled angiotensin II (Inhibition of 125I Angiotensin II Binding); settings: rat adrenal cortex membranes; 1 nM 125I-A II; 25° C.; 35 min
pIC50: −log10 of the molar value. Counter-ions that a name gives are not always drawn.
measured attribute: pIC50

molecule="Cc1nc(C)c(Cc2cccs2)c(NCc2ccc(-c3ccccc3-c3nnn[nH]3)cc2)n1 [Example 55]" data_value=7.24
molecule="Cc1nc(NCc2ccc(-c3ccccc3C(=O)O)cc2)cc(C(F)(F)C(F)(F)F)n1 [Example 50, hemihydrate]" data_value=6.48
molecule="CCCc1cnc(C(F)(F)F)nc1NCc1ccc(-c2ccccc2-c2nnn[nH]2)cc1 [Example 39, sodium salt hydrate]" data_value=7.31
molecule="Cc1nc(C(F)(F)F)nc(NCc2ccc(-c3ccccc3-c3nnn[nH]3)cc2)c1C(C)C [Example 35, sodium salt sesquihydrate]" data_value=8.52
molecule="FC(F)(F)C(F)(F)c1cc(NCc2ccc(-c3ccccc3-c3nnn[nH]3)cc2)nc(C2CC2)n1 [Example 37, hydrate]" data_value=7.41
molecule="CCCc1c(CC)nc(C(F)(F)F)nc1NCc1ccc(-c2ccccc2-c2nnn[nH]2)cc1 [Example 46, sodium salt]" data_value=8.60
molecule="CCCc1c(C)nc(C(F)(F)F)nc1NCc1ccc(-c2ccccc2-c2nnn[nH]2)cc1 [Example 34, sodium salt hemihydrate]" data_value=7.60

###

target: angiotensin II receptor; assay: rat adrenal receptor binding assay, displacement of radiolabeled angiotensin II (Inhibition of 125I Angiotensin II Binding); details: rat adrenal cortex membranes; 1 nM 125I-A II; 25° C.; 35 min
pIC50: −log10 of the molar value. Counter-ions that a name gives are not always drawn.
Examples of compounds with documented pIC50 follow.
measured attribute: pIC50

compound="CCc1c(NCc2ccc(-c3ccccc3-c3nnn[nH]3)cc2)nc(C)nc1C(F)(F)C(F)(F)F [Example 43, sodium salt hydrate]" data_value=7.96
compound=C=CCc1c(C)nc(C(F)(F)F)nc1NCc1ccc(-c2ccccc2-c2nnn[nH]2)cc1 data_value=7.80
compound="CCc1nc(C(F)(F)F)nc(NCc2ccc(-c3ccccc3-c3nnn[nH]3)cc2)c1C(C)C [Example 40, sodium salt]" data_value=8.19
compound="Cc1cccc(Cc2c(NCc3ccc(-c4ccccc4-c4nnn[nH]4)cc3)nc(C)nc2C(F)(F)F)c1 [Example 42, sodium salt]" data_value=7.39
compound="Cc1nc(C(F)(F)F)nc(NCc2ccc(-c3ccccc3-c3nnn[nH]3)cc2)c1Cc1ccccc1 [Example 45, sodium salt hydrate]" data_value=7.32
compound=C#CCc1c(C)nc(C)nc1NCc1ccc(-c2ccccc2-c2nnn[nH]2)cc1 data_value=7.41
compound="Cc1nc(NCc2ccc(-c3ccccc3-c3nnn[nH]3)cc2)cc(C(F)(F)C(F)(F)F)n1 [Example 47, sodium salt hydrate]" data_value=7.42

###

molecular target: angiotensin II receptor; assay: rat adrenal receptor binding assay, displacement of radiolabeled angiotensin II (Inhibition of 125I Angiotensin II Binding); conditions: rat adrenal cortex membranes; 1 nM 125I-A II; 25° C.; 35 min
Counter-ions that a name gives are not always drawn.
measured attribute: IC50 (nM)

molecule=Cc1cc(NCc2ccc(-c3ccccc3C(=O)O)cc2)nc(C(F)(F)F)n1 measured_attribute=IC50 data_value=500
molecule="CCc1cc(NCc2ccc(-c3ccccc3-c3nnn[nH]3)cc2)nc(C)n1 [Example 38, acetate trihydrate]" measured_attribute=IC50 data_value=7.8
molecule="Cc1nc(NCc2ccc(-c3ccccc3C(=O)O)cc2)cc(C(F)(F)F)n1 [Example 51, sesquihydrate]" measured_attribute=IC50 data_value=850
molecule="CCc1cc(NCc2ccc(-c3ccccc3-c3nnn[nH]3)cc2)nc(C(F)(F)F)n1 [Example 36, sodium salt sesquihydrate]" measured_attribute=IC50 data_value=5.6
molecule="Cc1nc(NCc2ccc(-c3ccccc3-c3nnn[nH]3)cc2)c(C)c(C(F)(F)F)n1 [Example 44, hemihydrate]" measured_attribute=IC50 data_value=20
molecule=Cc1nc(C)c(CC(=O)O)c(NCc2ccc(-c3ccccc3-c3nnn[nH]3)cc2)n1 measured_attribute=IC50 data_value=200
molecule="Cc1nc(NCc2ccc(-c3ccccc3-c3nnn[nH]3)cc2)cc(C(F)(F)F)n1 [Example 48, hydrate]" measured_attribute=IC50 data_value=61
molecule=C=CCc1c(C)nc(C)nc1NCc1ccc(-c2ccccc2-c2nnn[nH]2)cc1 measured_attribute=IC50 data_value=7.5
